- Test system: SNB-75 CNS
- protocolDetails: NCI-60 one-dose screen, 48 h (100 = growth as untreated, 0 = no growth, -100 = all killed)
- testContext: 10 µM unless noted
- Procedure: Growth inhibition of the SNB-75 human tumor cell line is measured as a screen for anti-cancer activity. Cells are grown in 96 well plates and exposed to the test compound for 48 hours. Compounds are tested at a single concentration, which is 10^-5 M for most compounds. The reported endpoint is percent growth (GI% or GIPRCNT), where numbers from 0 - 100% represent growth inhibition, and numbers from -100% - 0 represent cell death. For example, a value of 40 represents 60% growth inhibition. […]
This is part of a sample that, as a whole, favours compounds with a hit. Of some 83,000 tested, about 20% had one in any assay.
I'd appreciate it if you could supply growth values for the items below.
One number for each entry, in %.

O=C(CN1C(=O)S/C(=C\C(Cl)=C\c2ccccc2)C1=O)NC1C=CS(=O)(=O)C1 (centres undefined)	19
COc1cc(Nc2nc3ccccc3cc2C(=O)Nc2ccc(F)c(F)c2)cc(OC)c1OC	45.4
COc1cc(NS(=O)(=O)C(C)C)cc(-c2cc(-c3ccc(N4CCNCC4)cc3)cnc2N)c1	53.7
CCN1CCN(C(=O)[C@]23CC[C@@H](C)[C@H](C)[C@@H]2C2=CC[C@@H]4[C@@]5(C)CCC(=O)C(C)(C)[C@@H]5CC[C@@]4(C)[C@]2(C)CC3)CC1	-3.49
S=c1nc(CS)[nH]c2ccccc12	86.7
COc1cc(/C=C2\C(=O)N(CCCCn3c4ccccc4c(=O)c4ccccc43)c3ccccc32)cc(OC)c1O	51.7
O=c1ccc2nc(-c3ccccn3)nn(-c3ccccc3)c-2c1	98.4
CCc1c2c(nc3ccc(OCc4ccc(B5OC(C)(C)C(C)(C)O5)cc4)cc13)-c1cc3c(c(=O)n1C2)COC(=O)[C@]3(O)CC	5.99

Then there is this molecule:
growth reported for this molecule CCCN1C(=O)/C(=c2\sc3n(c2=O)C2C(NN=3)N(CC)C(=O)N2CC)c2ccccc21 (centres undefined) : 17.2

----------
I'd appreciate it if you could supply growth values for the items below.
- System: SNB-75 CNS
- protocolDetails: NCI-60 one-dose screen, 48 h (100 = growth as untreated, 0 = no growth, -100 = all killed)
- testContext: 10 µM unless noted
This is part of a sample that, as a whole, favours compounds with a hit. Of some 83,000 tested, about 20% had one in any assay.
Answers are plain numbers, in %.

Would you please look over these solved cases?
O=C1C=C(Nc2ccccc2)c2ncccc2C1=O	-97.1
COc1cc(-c2[nH]ncc2Nc2ccc(Cl)cc2)cc(OC)c1OC	59.8
O=C1/C(=C/c2cn(-c3ccccc3)nc2-c2ccccc2)SC(=S)N1c1ccccc1	97.2
COc1cc(/C=C2\CCC/C(=C\c3cc(CN4CCCC4)c(O)c(OC)c3)C2=O)cc(CN2CCCC2)c1O	20.3
CC(=O)N1N=C(c2ccc(Nc3nc(Nc4ccc(F)cc4)nc(Nc4ccc(Cl)cc4)n3)cc2)CC1c1ccc(N(C)C)cc1 (centres undefined)	40.3

I'm hoping you can list growth for every molecule here, please.
1. CC(Sc1ccccc1)C(=O)O (centres undefined)
2. CN(Cc1ccccc1)c1nc(Cl)c(C2CC(c3ccc(F)cc3)=NN2C=O)s1 (centres undefined)
3. CCC(=O)Oc1cc(Cl)c(Cl)cc1Cl
4. O=c1oc2c(Br)cc(Br)cc2cc1-c1cc(-c2ccc(-c3cc(-c4cc5cc(Br)cc(Br)c5oc4=O)nc(-c4cc5cc(Br)cc(Br)c5oc4=O)c3)cc2)cc(-c2cc3cc(Br)cc(Br)c3oc2=O)n1

91.6
97.3
89.6
105
